Test system: Enterococcus faecalis
Assay: Drug uptake in vancomycin[…]-type Enterococcus faecalis BM4316 assessed as red-fluorescent bacteria at 1 times MIC after 1 hr by confocal microscopy

# GIVEN SMILES, Drug uptake
records = [
    ("CN[C@H](CC(C)C)C(=O)N[C@H]1C(=O)N[C@@H](CC(N)=O)C(=O)N[C@H]2C(=O)N[C@H]3C(=O)N[C@H](C(=O)N[C@H](C(=O)O)c4cc(O)cc(O)c4-c4cc3ccc4O)[C@H](O)c3ccc(c(Cl)c3)Oc3cc2cc(c3O[C@@H]2O[C@H](CO)[C@@H](O)[C@H](O)[C@H]2O[C@H]2C[C@](C)(NCCCCNc3cc(C(F)(F)F)nc4cc(Cl)ccc34)[C@H](O)[C@H](C)O2)Oc2ccc(cc2Cl)[C@H]1O", "Active"),
    ("CCCCCCCCCC(=O)N[C@@H](Cc1c[nH]c2ccccc12)C(=O)N[C@H](CC(N)=O)C(=O)N[C@@H](CC(=O)O)C(=O)N[C@@H]1C(=O)NCC(=O)N[C@@H](CCCN)C(=O)N[C@@H](CC(=O)O)C(=O)N[C@H](C)C(=O)N[C@@H](CC(=O)O)C(=O)NCC(=O)N[C@H](CO)C(=O)N[C@@H]([C@H](C)CC(=O)O)C(=O)N[C@@H](CC(=O)c2ccccc2N)C(=O)O[C@@H]1C", "Active"),
    ("CCCCCCCCCCNCCN[C@@]1(C)C[C@H](O[C@H]2[C@H](Oc3c4cc5cc3Oc3ccc(cc3Cl)[C@@H](O)[C@@H](NC(=O)[C@@H](CC(C)C)NC)C(=O)N[C@@H](CC(N)=O)C(=O)N[C@H]5C(=O)N[C@H]3C(=O)N[C@H](C(=O)N[C@H](C(=O)O)c5cc(O)c(CNCP(=O)(O)O)c(O)c5-c5cc3ccc5O)[C@H](O)c3ccc(c(Cl)c3)O4)O[C@H](CO)[C@@H](O)[C@@H]2O)O[C@@H](C)[C@H]1O", "Active"),
    ("CN[C@H](CC(C)C)C(=O)N[C@H]1C(=O)N[C@@H](CC(N)=O)C(=O)N[C@H]2C(=O)N[C@H]3C(=O)N[C@H](C(=O)N[C@H](C(=O)O)c4cc(O)cc(O)c4-c4cc3ccc4O)[C@H](O)c3ccc(c(Cl)c3)Oc3cc2cc(c3O[C@@H]2O[C@H](CO)[C@@H](O)[C@H](O)[C@H]2O[C@H]2C[C@](C)(N)[C@H](O)[C@H](C)O2)Oc2ccc(cc2Cl)[C@H]1O", "Active"),
]

###

Tested on: Enterococcus faecalis
Experiment: Antibacterial activity against vancomycin-susceptible Enterococcus faecalis JH2-2 using BHI broth by macrodilution method
Type: functional
ATTRIBUTE MEASURED: Activity (µg/mL)
The response must be a number in µg/mL with no trailing unit.

# GIVEN SMILES, ATTRIBUTE MEASURED, UNITS, ASSAY RESULT
data = [
    ("CN[C@H](CC(C)C)C(=O)N[C@H]1C(=O)N[C@@H](CC(N)=O)C(=O)N[C@H]2C(=O)N[C@H]3C(=O)N[C@H](C(=O)N[C@H](C(=O)O)c4cc(O)cc(O)c4-c4cc3ccc4O)[C@H](O)c3ccc(c(Cl)c3)Oc3cc2cc(c3O[C@@H]2O[C@H](CO)[C@@H](O)[C@H](O)[C@H]2O[C@H]2C[C@](C)(N)[C@H](O)[C@H](C)O2)Oc2ccc(cc2Cl)[C@H]1O", "Activity", "µg/mL", 4),
]

Test system Enterococcus faecalis; read-out Activity; what value for "CN[C@H](CC(C)C)C(=O)N[C@H]1C(=O)N[C@@H](CC(N)=O)C(=O)N[C@H]2C(=O)N[C@H]3C(=O)N[C@H](C(=O)N[C@H](C(=O)O)c4cc(O)cc(O)c4-c4cc3ccc4O)[C@H](O)c3ccc(c(Cl)c3)Oc3cc2cc(c3O[C@@H]2O[C@H](CO)[C@@H](O)[C@H](O)[C@H]2O[C@H]2C[C@](C)(NCCCCNc3cc(C(F)(F)F)nc4cc(Cl)ccc34)[C@H](O)[C@H](C)O2)Oc2ccc(cc2Cl)[C@H]1O" ?
0.5

Quick check: Activity on Enterococcus faecalis, item "CCCCCCCCCC(=O)N[C@@H](Cc1c[nH]c2ccccc12)C(=O)N[C@H](CC(N)=O)C(=O)N[C@@H](CC(=O)O)C(=O)N[C@@H]1C(=O)NCC(=O)N[C@@H](CCCN)C(=O)N[C@@H](CC(=O)O)C(=O)N[C@H](C)C(=O)N[C@@H](CC(=O)O)C(=O)NCC(=O)N[C@H](CO)C(=O)N[C@@H]([C@H](C)CC(=O)O)C(=O)N[C@@H](CC(=O)c2ccccc2N)C(=O)O[C@@H]1C" ?
2

Can you look up Activity on Enterococcus faecalis for "CCCCCCCCCCNCCN[C@@]1(C)C[C@H](O[C@H]2[C@H](Oc3c4cc5cc3Oc3ccc(cc3Cl)[C@@H](O)[C@@H](NC(=O)[C@@H](CC(C)C)NC)C(=O)N[C@@H](CC(N)=O)C(=O)N[C@H]5C(=O)N[C@H]3C(=O)N[C@H](C(=O)N[C@H](C(=O)O)c5cc(O)c(CNCP(=O)(O)O)c(O)c5-c5cc3ccc5O)[C@H](O)c3ccc(c(Cl)c3)O4)O[C@H](CO)[C@@H](O)[C@@H]2O)O[C@@H](C)[C@H]1O" ?
1

###

Test system: Enterococcus faecalis
Test: Drug uptake in vancomycin[…]-type Enterococcus faecalis BM4275 assessed as red-fluorescent bacteria at 1 times MIC after 1 hr by confocal microscopy

# GIVEN SMILES, TESTED ON, Drug uptake
data = [
    ("CCCCCCCCCCNCCN[C@@]1(C)C[C@H](O[C@H]2[C@H](Oc3c4cc5cc3Oc3ccc(cc3Cl)[C@@H](O)[C@@H](NC(=O)[C@@H](CC(C)C)NC)C(=O)N[C@@H](CC(N)=O)C(=O)N[C@H]5C(=O)N[C@H]3C(=O)N[C@H](C(=O)N[C@H](C(=O)O)c5cc(O)c(CNCP(=O)(O)O)c(O)c5-c5cc3ccc5O)[C@H](O)c3ccc(c(Cl)c3)O4)O[C@H](CO)[C@@H](O)[C@@H]2O)O[C@@H](C)[C@H]1O", "Enterococcus faecalis", "Active"),
    ("CN[C@H](CC(C)C)C(=O)N[C@H]1C(=O)N[C@@H](CC(N)=O)C(=O)N[C@H]2C(=O)N[C@H]3C(=O)N[C@H](C(=O)N[C@H](C(=O)O)c4cc(O)cc(O)c4-c4cc3ccc4O)[C@H](O)c3ccc(c(Cl)c3)Oc3cc2cc(c3O[C@@H]2O[C@H](CO)[C@@H](O)[C@H](O)[C@H]2O[C@H]2C[C@](C)(NCCCCNc3cc(C(F)(F)F)nc4cc(Cl)ccc34)[C@H](O)[C@H](C)O2)Oc2ccc(cc2Cl)[C@H]1O", "Enterococcus faecalis", "Active"),
    ("CN[C@H](CC(C)C)C(=O)N[C@H]1C(=O)N[C@@H](CC(N)=O)C(=O)N[C@H]2C(=O)N[C@H]3C(=O)N[C@H](C(=O)N[C@H](C(=O)O)c4cc(O)cc(O)c4-c4cc3ccc4O)[C@H](O)c3ccc(c(Cl)c3)Oc3cc2cc(c3O[C@@H]2O[C@H](CO)[C@@H](O)[C@H](O)[C@H]2O[C@H]2C[C@](C)(N)[C@H](O)[C@H](C)O2)Oc2ccc(cc2Cl)[C@H]1O", "Enterococcus faecalis", "Active"),
]
